Biological target: T1, CeMETT10-FLΔL_RRR/7E (Caenorhabditis elegans, UniProt Q09357 1-479, R360E;A361E;R362E;K363E;R364E;A365E;K366E;del386-430)
T1 sequence: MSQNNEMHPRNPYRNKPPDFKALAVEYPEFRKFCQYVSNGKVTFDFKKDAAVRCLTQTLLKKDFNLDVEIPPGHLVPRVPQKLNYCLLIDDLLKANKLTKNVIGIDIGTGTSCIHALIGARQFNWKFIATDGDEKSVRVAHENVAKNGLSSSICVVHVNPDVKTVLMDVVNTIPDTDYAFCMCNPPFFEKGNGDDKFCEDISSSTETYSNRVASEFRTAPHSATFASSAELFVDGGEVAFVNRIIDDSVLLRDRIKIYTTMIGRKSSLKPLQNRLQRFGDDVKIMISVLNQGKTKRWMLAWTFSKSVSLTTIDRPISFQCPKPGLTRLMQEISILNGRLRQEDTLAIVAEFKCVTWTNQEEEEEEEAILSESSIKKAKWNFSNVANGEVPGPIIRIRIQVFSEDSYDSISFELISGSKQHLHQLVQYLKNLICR
Assay: EMSA
assay_endpoint: Kd (µM)
Quick reminder: number only, in µM, skip the unit.

Lookup: Tell me the measured Kd of sams-hp-ls (structured_RNA) RNA: GGCAACAAUAUGUUUCUUUACCUGUUACAACGGUUACUUUGAUUACAGAAACGGUGACUAAAACGGGUAUGAUCAUGUUGUGCCC , please.
Found: 8.3
